# System: Streptococcus pyogenes SSI-9
# assay.summary: Antibacterial activity assay of bead-derived peptides (three concentrations)
# Assay type: cell-based
# Parameters: key: +++: inhibition by the 640-fold diluted peptide solution; ++: inhibition by the 160-fold diluted solution; +: inhibition by the 40-fold diluted solution; -: no inhibition
# condition: S. pyogenes, bead-derived peptide solution, three concentrations
Where a SMILES comes first, the peptide text is derived from it. [ ]: non-standard residue; d: D form. The star is where a group is joined. NHCH2CH2OH = OCCN*; For = O=C*
readout.name: antibacterial activity

1) CC(C)C[C@@H](NC(=O)[C@H](C)NC(=O)CNC(=O)[C@@H](NC=O)C(C)C)C(=O)N[C@@H](C)C(=O)N[C@@H](C(=O)N[C@H](C(=O)N[C@@H](C(=O)N[C@@H](Cc1c[nH]c2ccccc12)C(=O)N[C@@H](C(=O)N[C@@H](Cc1c[nH]c2ccccc12)C(=O)N[C@H](CC(C)C)C(=O)N[C@@H](Cc1c[nH]c2ccccc12)C(=O)N[C@@H](C(=O)N[C@@H](Cc1c[nH]c2ccccc12)C(=O)NCCO)C(C)C)C(C)C)[C@H](C)O)C(C)C)C(C)C [compound 4357] (For-VGA[dL]A[dV]V[dT]W[dV]W[dL]W[dV]W-NHCH2CH2OH)    -
2) CC(C)C[C@@H](NC(=O)[C@H](C)NC(=O)[C@H](NC(=O)[C@H](C)NC(=O)CNC(=O)[C@@H](NC=O)C(C)C)[C@H](C)O)C(=O)N[C@H](C(=O)N[C@@H](C(=O)N[C@@H](Cc1c[nH]c2ccccc12)C(=O)N[C@@H](C(=O)N[C@@H](Cc1c[nH]c2ccccc12)C(=O)N[C@H](CC(C)C)C(=O)N[C@@H](Cc1c[nH]c2ccccc12)C(=O)N[C@@H](C(=O)N[C@@H](Cc1c[nH]c2ccccc12)C(=O)NCCO)C(C)C)C(C)C)C(C)C)C(C)C [compound 6857] (For-VGA[dT]A[dL]V[dV]W[dV]W[dL]W[dV]W-NHCH2CH2OH)    -
